A collection of molecules and their measured log10 IC50
- Test target: OCT2 (Homo sapiens, UniProt O15244)
- Sequence (O15244 whole entry): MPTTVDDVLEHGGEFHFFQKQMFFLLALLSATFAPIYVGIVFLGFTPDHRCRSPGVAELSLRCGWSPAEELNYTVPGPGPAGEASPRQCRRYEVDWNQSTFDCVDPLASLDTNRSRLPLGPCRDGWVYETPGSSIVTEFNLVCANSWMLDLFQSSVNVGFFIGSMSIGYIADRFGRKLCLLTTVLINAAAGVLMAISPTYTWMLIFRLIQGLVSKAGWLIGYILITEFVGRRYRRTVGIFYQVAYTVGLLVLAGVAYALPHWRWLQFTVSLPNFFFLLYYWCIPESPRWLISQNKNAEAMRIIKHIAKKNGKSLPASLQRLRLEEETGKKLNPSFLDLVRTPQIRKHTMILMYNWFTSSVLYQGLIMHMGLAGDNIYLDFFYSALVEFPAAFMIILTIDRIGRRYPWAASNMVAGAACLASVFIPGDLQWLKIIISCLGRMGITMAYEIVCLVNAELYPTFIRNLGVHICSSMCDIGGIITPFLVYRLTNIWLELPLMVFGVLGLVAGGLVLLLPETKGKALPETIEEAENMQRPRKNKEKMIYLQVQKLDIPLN
- Test details: in vitro
- Settings: human, pH 7.3
Units before log transform: nM; reported quantity: IC50; transform: log10.

Problem: // map N[C@@H](CC(=O)N1CCn2c(nnc2C(F)(F)F)C1)Cc1cc(F)c(F)cc1F [Sitagliptin] to recorded log10 IC50 (system: OCT2 (Homo sapiens, UniProt O15244))
Result: 3.87

----------
- Test target: OCT2 (Homo sapiens, UniProt O15244)
- Test details: in vitro
- Settings: human, pH 7.3
Assay readout: % Inhibition of OCT2-dependent MF uptake at 20 µM (mean ± SEM)
Answer with the value's number alone.

As a guide, the following entries are already answered.
- Compound: "CC1CCN(CCCC(=O)c2ccc(F)cc2)CC1"
  Observed measurement: 75.0
- Compound: "COc1cc2nc(N3CCN(C(=O)C4COc5ccccc5O4)CC3)nc(N)c2cc1OC (stereo not shown)"
  Observed measurement: 48.0

Problem: Test system OCT2 (Homo sapiens, UniProt O15244); read-out % Inhibition of OCT2-dependent MF uptake at 20 µM (mean ± SEM); what value for `C#C[C@]1(O)CC[C@H]2[C@@H]3CCC4=CC(=O)CC[C@@H]4[C@H]3CC[C@@]21C` ?
Result: 41.0

Problem: Try `Fc1ccc([C@@H]2CCNC[C@H]2COc2ccc3c(c2)OCO3)cc1` next.
Result: 80.6

Problem: Item: `CCOC(=O)[C@H](CCc1ccccc1)N[C@@H](C)C(=O)N1CCC[C@H]1C(=O)O`
Result: 7.5

Source: paper PMC4556614
